Data provenance is ChEMBL document CHEMBL3085759.

tested on: Aspergillus fumigatus; assay: Antimicrobial activity against Aspergillus fumigatus ATCC 204305 by Alamar blue method; assay type: functional, organism-based
MFC overview
Please give a number only; it is taken to be in µg/mL.

[[record]]
item_smiles = "Clc1ccccc1CSc1cc2ccccc2[n+](CCCCCC2CCCCC2)c1.[I-]"
measured_property = "MFC"
assay_result = 20

[[record]]
item_smiles = "N#Cc1cccc(CSc2cc3ccccc3[n+](CCCCCC3CCCCC3)c2)c1.[I-]"
measured_property = "MFC"
assay_result = 20

[[record]]
item_smiles = "Fc1ccccc1CSc1cc2ccccc2[n+](CCCCCC2CCCCC2)c1.[I-]"
measured_property = "MFC"
assay_result = 20

[[record]]
item_smiles = "FC(F)(F)c1ccc(CSc2cc3ccccc3[n+](CCCCCC3CCCCC3)c2)cc1.[I-]"
measured_property = "MFC"
assay_result = 5

[[record]]
item_smiles = "Cc1cccc(CSc2cc3ccccc3[n+](CCCCCC3CCCCC3)c2)c1.[I-]"
measured_property = "MFC"
assay_result = 10

[[record]]
item_smiles = "FC(F)(F)c1ccccc1CSc1cc2ccccc2[n+](CCCCCC2CCCCC2)c1.[I-]"
measured_property = "MFC"
assay_result = 10


Attention now turns to another entry.
Please report the measured MFC for N#Cc1ccc(CSc2cc3ccccc3[n+](CCCCCC3CCCCC3)c2)cc1.[I-]
20
